Exercise: for every item that follows, state its recorded protein stability index.
B1: C22orf15 (parent)
chain: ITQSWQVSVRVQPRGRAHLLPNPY

Variants of: B1
Protocol Description: protein stability index of a GFP-peptide fusion (GPS, HEK-293T) (PSI 1-6); higher = more stable;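 also: lentivirally expressed fusions sorted by FACS into six bins by GFP to DsRed ratio, PSI derived from sequencing read proportions per bin multiplied by bin number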
Condition Parameters: c terminus: a fixed tail appended
Give bare numbers.

Worked cases, answers included:
# Mutant Label, Measurement
records = [
    ("A17H", 3.03),
    ("V9H", 2.88),
    ("P23N", 3.05),
]

// batch mode: one protein stability index value per listed entry
1. T2D
2. N22S
3. R14K
4. P21T
5. G15Q

OUTPUT:
2.46
4.3
2.25
2.87
1.48
